System: 3hpdh
runDescription: RT-PCR relative mRNA level of 3-HP catabolic gene
conditionDescription: FIG. 5
measureName: inducer of expression of 3hpdH

molecule=CC(C)[C@H](N)C(=O)O recordedresult="acts as an inducer"
molecule="CC(O)CC(=O)O (stereo not shown) [3-HB, 3-hydroxybutyrate]" recordedresult="acts as an inducer"
molecule="O=C(O)CCO [3-HP, 3-hydroxypropionic acid]" recordedresult="acts as an inducer"
molecule="CC(CO)C(=O)O (stereo not shown) [3HIB, 3-hydroxyisobutyrate]" recordedresult="acts as an inducer"
